test_summary: NCI Yeast Anticancer Drug Screen. Data for the cln2 rad14 strain (AID 165);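 also: 0% = growth equal to vehicle treated cultures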
particulars: S. cerevisiae cln2 rad14 strain, at 50.0 µM
About 79,000 compounds went through this panel and 15% of them were active in at least one assay; those are over-represented in the sample as a whole. Activity calls are given as the source filed them. Rule as the data show it: active = growth inhibition above about 70%; inactive = the rest.
In this exercise, the only acceptable responses are 1 for active, 0 for inactive

compound: O=C(O)CCCCCN1C(=O)c2cccc([N+](=O)[O-])c2C1=O
label_class: 0

compound: COc1cccc(NC(=O)NC(C)(C)C)c1
label_class: 0

compound: COC(=O)CCc1ccc(NC(=O)OC)cc1
label_class: 0

compound: CC1(C)COC(c2ccc(CC(Cc3ccc(C4(C(C)(C)C)OCC(C)(C)CO4)cc3)C(=O)O)cc2)(C(C)(C)C)OC1
label_class: 0

compound: O=C(Nc1ccc(Br)cn1)c1sc2ccccc2c1Cl
label_class: 0

Prompt: Please let me know the test result on file for CC1(C)OCC2OC=CC(=O)C2O1 (stereo unspecified) .
Completion: 0

Prompt: // outcome(item) with item = CCCCNS(=O)(=O)c1ccc(C)cc1
Completion: 0

Prompt: State the result this test recorded for CC(=O)OCC1OC(N2C(=O)C(=O)c3cc(C)ccc32)C(OC(C)=O)C(OC(C)=O)C1OC(C)=O (stereo unspecified) .
Completion: 0

Prompt: Per the assay record, what outcome was assigned to CC(C)(C)NC(=O)Oc1ccc(-c2ccccc2)cc1Cl ?
Completion: 1

Prompt: # lookup: test call for NC(Cc1ccc(O)c(O)c1)P(=O)(O)O (stereo unspecified)
Completion: 0

Prompt: # outcome recorded in this test, key = CSc1nc(N)c(NS(=O)(=O)c2ccc([N+](=O)[O-])cc2)c(=O)[nH]1
Completion: 0

====

Field: growth inhibition. Provide a value for each of the compounds that follow.
test_summary: NCI Yeast Anticancer Drug Screen. Data for the bub3 strain (AID 167)
particulars: S. cerevisiae bub3 mutant strain, at 50.0 µM, stronger effect = higher value
Compounds without any hit were thinned out: in the full panel of roughly 79,000, 15% have a hit.
Give bare numbers, in %.

Answered examples (4):
compound: CCN(CC)CCCNc1cccc2nc(Cl)ccc12
observed_property: growth inhibition
endpoint_value: 2.65

compound: CN(C)S(=O)(=O)c1nc2nc[nH]c(=O)c2[nH]1
observed_property: growth inhibition
endpoint_value: -8.55

compound: COc1cccc(C2=NC(C(C)C)CO2)c1OC (stereo unspecified)
observed_property: growth inhibition
endpoint_value: -8.35

compound: O=C(O)CCC1CCc2cccc(O)c2C1=O (stereo unspecified)
observed_property: growth inhibition
endpoint_value: 6.5

Could you report growth inhibition for every entry in the following list?
1. CC1CC(=O)Nc2ncccc2N1 (stereo unspecified)
2. CCC1CCC(CC)C1OC(C)=O (stereo unspecified)
3. c1ccc(C2=C(c3ccccn3)N=c3ccccc3=c3ccccc3=N2)nc1
4. CC(=O)O[C@@H]1CC[C@@]2(C)C(=O)C34C[C@@]5(C)C([C@@H](C)CCCC(C)C)CCC5(C)[C@](O)(O3)C(=O)[C@H]4C2C1(C)C (stereo partly specified)
5. O=C(O)C1(c2ccccc2)CC1
6. COC(=O)CCSCC(N)C(=O)O (stereo unspecified)
7. Cc1ccc(C2=Nn3c(nc4sc(C)c(C)c4c3=O)SC2)cc1
8. COc1cc2c(C)cc(=O)oc2c(OCC(O)CN2CCCC2)c1OC (stereo unspecified)

Completion:
1: 8.05; 2: -28.7; 3: 3.65; 4: -0.05; 5: 15.9; 6: -0.95; 7: -22.1; 8: -4.35

# map each compound to its growth inhibition
1. COCc1ccc(C(C)(C)CC(C)(C)C)cc1
2. C[C@H]1CC[C@@H](C(C)(C)O)CC2=C1CC[C@@H]2C
3. CCOC(=O)C(=O)/C(=C/N1CCNC1=S)C(=O)OCC

Completion:
[-0.45, -10.6, -4.35]

Prompt: Look up and report measured growth inhibition for this entry: CSC(C(O)C(O)C(O)C(O)CO)n1cnc2c(=S)nc[nH]c21 (stereo unspecified)
Completion: 11.3
